- experimental_protocol: In vivo cytokine assay, plasma of Renca tumor-bearing mice
- Design: species or system mouse
- measurement_conditions: Renca tumor-bearing mice; 3 h; 1.86 mg/kg
reported_property: IL-6 in plasma (pg/mL)
# number only, unit pg/mL dropped from output

Look up IL-6 in plasma for this compound: CCn1nc(C)cc1C(=O)Nc1nc2cc(C(N)=O)cc(OC)c2n1C/C=C/Cn1c(NC(=O)c2cc(C)nn2CC)nc2cc(C(N)=O)cc(OCCCN3CCOCC3)c21.O=C(O)C(F)(F)F.O=C(O)C(F)(F)F.O=C(O)C(F)(F)F [Compound A, reference compound]
3550

* * *

# maps each entry to its pIC50
- Test system: 786-O
- experimental_protocol: Cancer cell direct cytotoxicity assay (CellTiter-Glo), 786-O
- Type: cell-based
- measurement_conditions: Homo sapiens, 786-0, 96 h, free compound, read-out: Compound X50
pIC50: −log10 of the molar value.

CCn1nc(C)cc1C(=O)Nc1nc2cc(C(N)=O)cc(OC)c2n1C/C=C/Cn1c(NC(=O)c2cc(C)nn2CC)nc2cc(C(N)=O)cc(OCCCNC)c21 [Compound 12a]	< 6.00
CCn1nc(C)cc1C(=O)Nc1nc2cc(C(N)=O)cc(OC)c2n1C/C=C/Cn1c(NC(=O)c2cc(C)nn2CC)nc2cc(C(N)=O)cc(OCCCN(C)C(=O)CCN3C(=O)CC(SC[C@H](N)C(=O)O)C3=O)c21 (stereo partly drawn) [Compound 16]	< 6.00

# input for lookup
Request the reported pIC50 associated with CCn1nc(C)cc1C(=O)Nc1nc2cc(C(N)=O)cc(O)c2n1C/C=C/Cn1c(NC(=O)c2cc(C)nn2CC)nc2cc(C(N)=O)cc(OC)c21 [Compound 1]
< 6.00

* * *

- experimental_protocol: In vivo cytokine assay, plasma of Renca tumor-bearing mice
- Set-up: species or system mouse
- measurement_conditions: Renca tumor-bearing mice; 3 h; 1.48 mg/kg
reported_property: IL-10 in plasma (pg/mL)
Kindly provide the numeric value in pg/mL only, without the unit symbol.

Request the reported IL-10 in plasma associated with `CCn1nc(C)cc1C(=O)Nc1nc2cc(C(N)=O)cc(O)c2n1C/C=C/Cn1c(NC(=O)c2cc(C)nn2CC)nc2cc(C(N)=O)cc(OC)c21`
48.8

* * *

- experimental_protocol: In vivo cytokine assay, plasma of Renca tumor-bearing mice
- Set-up: species or system mouse
- measurement_conditions: Renca tumor-bearing mice; 24 h; 1.86 mg/kg
reported_property: IL1β in plasma (pg/mL)
// units = pg/mL; emit number, no label

Item under review: CCn1nc(C)cc1C(=O)Nc1nc2cc(C(N)=O)cc(OC)c2n1C/C=C/Cn1c(NC(=O)c2cc(C)nn2CC)nc2cc(C(N)=O)cc(OCCCN3CCOCC3)c21.O=C(O)C(F)(F)F.O=C(O)C(F)(F)F.O=C(O)C(F)(F)F [Compound A, reference compound] . Reported IL1β in plasma?
0.3

* * *

- experimental_protocol: In vivo cytokine assay, plasma of Renca tumor-bearing mice
- Parameters: species or system mouse
- measurement_conditions: Renca tumor-bearing mice; 3 h; 1.86 mg/kg
reported_property: MCP-1 in plasma (pg/mL)
Please give a number only; it is taken to be in pg/mL.

Look up MCP-1 in plasma for this compound: CCn1nc(C)cc1C(=O)Nc1nc2cc(C(N)=O)cc(OC)c2n1C/C=C/Cn1c(NC(=O)c2cc(C)nn2CC)nc2cc(C(N)=O)cc(OCCCN3CCOCC3)c21.O=C(O)C(F)(F)F.O=C(O)C(F)(F)F.O=C(O)C(F)(F)F [Compound A, reference compound]
14500

* * *

- experimental_protocol: In vivo cytokine assay, plasma of Renca tumor-bearing mice
- Set-up: species or system mouse
- measurement_conditions: Renca tumor-bearing mice; 6 h; 1.86 mg/kg
reported_property: IL12p70 in plasma (pg/mL)
// note: answer is a bare numeric in pg/mL

What value of measured IL12p70 in plasma is listed for CCn1nc(C)cc1C(=O)Nc1nc2cc(C(N)=O)cc(OC)c2n1C/C=C/Cn1c(NC(=O)c2cc(C)nn2CC)nc2cc(C(N)=O)cc(OCCCN3CCOCC3)c21.O=C(O)C(F)(F)F.O=C(O)C(F)(F)F.O=C(O)C(F)(F)F [Compound A, reference compound] ?
0.2

* * *

- experimental_protocol: In vivo cytokine assay, plasma of Renca tumor-bearing mice
- Set-up: species or system mouse
- measurement_conditions: Renca tumor-bearing mice; 6 h; 1.48 mg/kg
reported_property: IL-10 in plasma (pg/mL)
I only need the number, in pg/mL, no unit after it.

Consider the molecule `CCn1nc(C)cc1C(=O)Nc1nc2cc(C(N)=O)cc(O)c2n1C/C=C/Cn1c(NC(=O)c2cc(C)nn2CC)nc2cc(C(N)=O)cc(OC)c21` and give its measured IL-10 in plasma.
0.8

* * *

- experimental_protocol: In vivo cytokine assay, plasma of Renca tumor-bearing mice
- Parameters: species or system mouse
- measurement_conditions: Renca tumor-bearing mice; 6 h; 1.48 mg/kg
- Method: Cytokines were measured in mouse plasma harvested at 3, 6, 24, or 48 hours after treatment with compounds or ADCs using a Milliplex MAP mouse cytokine/chemokine magnetic bead panel assay kit (MCYTOMAG-70k custom 11-plex kit: MCP1, MIP1α, MIP1β, TNFα, IFNγ, IL-10, IL-12p70, IL-6, IL-1β, IP10, RANTES) and analyzed using a Luminex™ MAGPIX™ Instrument System. Values that were outside of the standard curve range (<3.2 or […]) were excluded from calculation of the mean values.
reported_property: IL-6 in plasma (pg/mL)
Unit pg/mL implied. Number only.

Find the recorded IL-6 in plasma belonging to `CCn1nc(C)cc1C(=O)Nc1nc2cc(C(N)=O)cc(O)c2n1C/C=C/Cn1c(NC(=O)c2cc(C)nn2CC)nc2cc(C(N)=O)cc(OC)c21` and report it.
6.8

* * *

- experimental_protocol: In vivo cytokine assay, plasma of Renca tumor-bearing mice
- Design: species or system mouse
- measurement_conditions: Renca tumor-bearing mice; 6 h; 1.86 mg/kg
reported_property: IFNγ in plasma
Hey, just the number and the unit after it is fine.

Query: IFNγ in plasma; subject: CCn1nc(C)cc1C(=O)Nc1nc2cc(C(N)=O)cc(OC)c2n1C/C=C/Cn1c(NC(=O)c2cc(C)nn2CC)nc2cc(C(N)=O)cc(OCCCN3CCOCC3)c21.O=C(O)C(F)(F)F.O=C(O)C(F)(F)F.O=C(O)C(F)(F)F [Compound A, reference compound]
71.8 pg/mL

* * *

- experimental_protocol: In vivo cytokine assay, plasma of Renca tumor-bearing mice
- Set-up: species or system mouse
- measurement_conditions: Renca tumor-bearing mice; 6 h; 1.86 mg/kg
reported_property: IP10 in plasma (pg/mL)
# unit: pg/mL | format: bare number

Which IP10 in plasma value belongs to CCn1nc(C)cc1C(=O)Nc1nc2cc(C(N)=O)cc(OC)c2n1C/C=C/Cn1c(NC(=O)c2cc(C)nn2CC)nc2cc(C(N)=O)cc(OCCCN3CCOCC3)c21.O=C(O)C(F)(F)F.O=C(O)C(F)(F)F.O=C(O)C(F)(F)F [Compound A, reference compound] ?
4980
